Target Under Test: T1, human IL-11 (human)
T1 chain: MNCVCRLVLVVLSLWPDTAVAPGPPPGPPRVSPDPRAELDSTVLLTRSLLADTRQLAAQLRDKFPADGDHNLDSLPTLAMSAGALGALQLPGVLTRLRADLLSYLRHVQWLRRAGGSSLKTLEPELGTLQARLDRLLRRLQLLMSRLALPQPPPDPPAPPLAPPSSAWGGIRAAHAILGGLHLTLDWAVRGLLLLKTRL
Assay Procedure: SPR
Assay Readout: Kd (nM)
Respond numerically; units are nM and should not be typed.

Q) Reported Kd for CSJ-B-s-3G8 (antibody, V domains shown) VH: QVTLKESGPGMLQPSKTVSLTCSFSGFSMSTSGMVVSWIRQPSGKSLEWLAAIDWDGEKYYNPSLKSRLTVSKDTSNTQVFLKISSVDIADSATYYCARSGNYFDYWGQGVMVTVSS VL: DIQMTQSPASLSASLGETVTIECRASEDIYNGLVWYQQKPGKSPQLLIYDANRLHTGVPSRFSGGGSGTQYSLKINSLQSEDVASYFCQQYYDYPNTFGAGTKLELK : what is it?
A) 0.0174

Q) Reported Kd for CSJ-A-s-10D10 (antibody, V domains shown) VH: QVQLKESGPGLVQPSQTLSLTCTVSGFSLTNYHVHWVRQPPGKGLEWMGVMWIDGDTSYNSALRSRLSISRDTSKSQVFLKMSSLQTEDTATYYCAREGLNWFAYWGRGTLVTVSS VL: DIQMTQSPASLSVSLEEVVTITCKASQGIDDYLSWYQQKPGKSPQLLISDVTSLADGVPSRFSGSRSGTQYSLKISRPQVDDSGIYYCLQSYSTPYTFGAGTKLELK : what is it?
A) 0.424

Q) Reported Kd for CSI-s-9B9 (antibody, V domains shown) VH: EVHLQQSGPELVKPGASVKMSCKASGYTFTSYVIHWVKQRPGQGLEWIGNIYPYNDDTNYNEKFKGKATLTSDKSSSTAYMELSSLTSEESAVYFCTRERATYGDLAWFAYWGQGTLVTVSA VL: NIVLTQSPASLAVSLGQRATISCRASENIDSYGNSFMHWYQQKPGQPPKLLIYLASILESGVPARFSGSGSRTDFTLTIDPVEADDAATYYCQQNNEDPYTFGGGTKLEIK : what is it?
A) 0.145
